method: Aqueous solubility at pH 6.6
Format: physicochemical
Exercise: state measured solubility for each of the compounds provided.
Answers are plain numbers, in µg/mL.

# count of solved cases: 2
compound: Cn1cc(C2=C(c3cccc(NCC(O)CO)c3)C(=O)NC2=O)c2cc(Cl)ccc21 (racemic)
outputUnit: µg/mL
recordedMeasurement: 42
//
compound: Cn1cc(C2=C(c3cccc(OCC(O)CO)c3)C(=O)NC2=O)c2cc(F)ccc21 (racemic)
outputUnit: µg/mL
recordedMeasurement: 2.8

Fill in: solubility of Cn1cc(C2=C(c3cccc(NCC(O)CO)c3)C(=O)NC2=O)c2cc(F)ccc21 (racemic) is ___
104

====

measuredTarget: Cyclin-dependent kinase 18 (Homo sapiens, UniProt Q07002)
Sequence (Q07002 whole entry): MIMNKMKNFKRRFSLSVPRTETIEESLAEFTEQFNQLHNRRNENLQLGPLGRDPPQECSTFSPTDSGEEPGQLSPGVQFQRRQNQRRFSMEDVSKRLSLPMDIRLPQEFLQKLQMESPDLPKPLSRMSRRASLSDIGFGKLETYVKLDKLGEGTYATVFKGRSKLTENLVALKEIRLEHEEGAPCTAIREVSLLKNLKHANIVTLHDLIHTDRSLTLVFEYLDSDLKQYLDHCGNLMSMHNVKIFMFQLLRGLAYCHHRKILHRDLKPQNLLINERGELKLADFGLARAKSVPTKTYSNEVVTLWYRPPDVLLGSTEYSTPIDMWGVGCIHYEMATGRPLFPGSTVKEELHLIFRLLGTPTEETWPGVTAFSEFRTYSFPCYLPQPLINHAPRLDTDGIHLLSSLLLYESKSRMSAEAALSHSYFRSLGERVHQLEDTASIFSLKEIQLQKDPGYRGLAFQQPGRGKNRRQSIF
endpointLabel: Kd (nM)
Numbers only, in nM.

Fill in: Kd of Cn1cc(C2=C(c3cccc(NCC(O)CO)c3)C(=O)NC2=O)c2cc(F)ccc21 (racemic) is ___
110

====

measuredTarget: Aurora kinase B (Homo sapiens, UniProt Q96GD4)
Sequence (Q96GD4 whole entry): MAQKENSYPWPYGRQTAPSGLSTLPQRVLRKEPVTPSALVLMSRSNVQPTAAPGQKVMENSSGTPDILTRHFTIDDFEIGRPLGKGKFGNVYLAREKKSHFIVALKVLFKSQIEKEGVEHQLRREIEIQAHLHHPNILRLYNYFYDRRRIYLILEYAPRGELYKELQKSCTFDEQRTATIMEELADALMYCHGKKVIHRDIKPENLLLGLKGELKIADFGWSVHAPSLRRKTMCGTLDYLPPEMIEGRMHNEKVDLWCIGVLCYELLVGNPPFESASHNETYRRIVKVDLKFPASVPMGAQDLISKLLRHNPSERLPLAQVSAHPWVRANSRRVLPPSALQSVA
endpointLabel: pKd
Give bare numbers, as −log10 of the molar value.

Fill in: pKd of Cn1cc(C2=C(c3cccc(NCC(O)CO)c3)C(=O)NC2=O)c2cc(F)ccc21 (racemic) is ___
4.40

====

System: Rattus norvegicus
method: Cmax in rat at 25 mg/kg, po
particulars: in vivo
endpointLabel: Cmax (ng/mL)
Numbers only, in ng/mL.

Please tell me: Cmax of Cn1cc(C2=C(c3cccc(NCC(O)CO)c3)C(=O)NC2=O)c2cc(Cl)ccc21 (racemic) , system Rattus norvegicus?
110

====

measuredTarget: UniProtKB Q9Y463
Sequence (Q9Y463 whole entry): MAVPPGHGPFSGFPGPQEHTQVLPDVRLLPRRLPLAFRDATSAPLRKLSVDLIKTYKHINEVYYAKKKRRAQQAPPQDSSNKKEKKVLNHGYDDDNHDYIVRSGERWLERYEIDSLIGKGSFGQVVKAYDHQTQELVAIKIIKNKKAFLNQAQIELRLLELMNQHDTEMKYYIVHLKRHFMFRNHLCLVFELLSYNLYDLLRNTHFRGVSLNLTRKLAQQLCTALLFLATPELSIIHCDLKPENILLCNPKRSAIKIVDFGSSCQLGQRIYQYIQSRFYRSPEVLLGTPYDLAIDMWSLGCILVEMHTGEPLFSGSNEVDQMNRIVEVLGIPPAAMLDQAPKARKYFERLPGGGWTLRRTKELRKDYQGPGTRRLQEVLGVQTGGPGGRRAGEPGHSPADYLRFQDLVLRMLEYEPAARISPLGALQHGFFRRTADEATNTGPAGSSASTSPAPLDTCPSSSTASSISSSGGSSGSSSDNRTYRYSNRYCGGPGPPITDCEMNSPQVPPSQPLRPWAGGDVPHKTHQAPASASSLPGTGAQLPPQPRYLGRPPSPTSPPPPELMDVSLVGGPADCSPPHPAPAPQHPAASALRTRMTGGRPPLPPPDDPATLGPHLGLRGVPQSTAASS
endpointLabel: Kd
Enter the number, and then the unit.

Please tell me: Kd of Cn1cc(C2=C(c3cccc(NCC(O)CO)c3)C(=O)NC2=O)c2cc(F)ccc21 (racemic) , system UniProtKB Q9Y463?
87 nM

====

Tested on: Rattus norvegicus
method: AUC in rat at 25 mg/kg, po
particulars: plasma
endpointLabel: AUC
Enter the number, and then the unit.

Fill in: AUC of Cn1cc(C2=C(c3cccc(NCC(O)CO)c3)C(=O)NC2=O)c2cc(Cl)ccc21 (racemic) is ___
100 ng·h/mL

====

measuredTarget: Glycogen synthase kinase-3 beta (Homo sapiens, UniProt P49841)
Sequence (P49841 whole entry): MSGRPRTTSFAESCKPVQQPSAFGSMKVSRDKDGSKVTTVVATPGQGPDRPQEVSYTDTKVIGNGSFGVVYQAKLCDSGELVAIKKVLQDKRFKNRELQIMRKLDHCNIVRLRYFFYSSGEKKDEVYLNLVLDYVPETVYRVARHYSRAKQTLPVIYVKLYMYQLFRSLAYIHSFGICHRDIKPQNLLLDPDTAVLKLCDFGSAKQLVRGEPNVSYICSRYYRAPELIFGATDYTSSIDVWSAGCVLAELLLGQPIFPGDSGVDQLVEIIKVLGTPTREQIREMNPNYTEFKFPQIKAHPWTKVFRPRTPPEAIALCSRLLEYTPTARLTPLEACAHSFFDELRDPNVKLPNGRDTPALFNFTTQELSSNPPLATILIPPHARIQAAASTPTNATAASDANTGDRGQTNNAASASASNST
method: Inhibition of human recombinant GSK3-beta assessed as [gamma33]ATP transfer to biotinylated CREB-peptide substrate after 1 hr by scintillation counting
Exercise: state measured pIC50 for each of the molecules provided.
Numbers only, as −log10 of the molar value.

molecule: CN(C)c1nc2ccc1CCCN1C=C(C3=C(C(=O)NC3=O)c3cn(c4ccccc34)CCC2)N2C=CC=CC12 (centres undefined)
endpointLabel: pIC50
recordedMeasurement: 8.15
--
molecule: COc1ccc(C2=C(c3cn(C)c4ccccc34)C(=O)NC2=O)cc1OC
endpointLabel: pIC50
recordedMeasurement: 8.18
--
molecule: Cn1cc(C2=C(c3c4n(c5ccccc35)CCN(C(N)=S)C4)C(=O)NC2=O)c2ccccc21
endpointLabel: pIC50
recordedMeasurement: 8.00

Fill in: pIC50 of COc1cccc(C2=C(c3cn(C)c4ccccc34)C(=O)NC2=O)c1 is ___
7.05
